Tested on: Bel-7402
Procedure summary: Antiproliferative activity against human Bel7402 cells assessed as reduction in cell viability incubated for 48 hrs by MTT assay
Type: functional, cell-based
Assay conditions: Bel-7402, 48 h
pIC50: −log10 of the molar value.
Quick rule for you: pIC50 at 5 or higher means Met, lower means Not met.

Known results for compounds:
Structure	Group
C=C1C(=O)[C@]23[C@H](OC(=O)CCCCCCC(=O)O)[C@H]1CC[C@H]2[C@@]12CO[C@]3(O)[C@@H](O)[C@@H]1C(C)(C)CC[C@@H]2O	Met
O=c1[nH]cc(F)c(=O)[nH]1	Not met
C=C1C(=O)[C@]23[C@H](OC(=O)c4cc5ccc(F)cc5[nH]4)[C@H]1CC[C@H]2[C@@]12CO[C@]3(O)[C@@H](O)[C@@H]1C(C)(C)CC[C@@H]2O	Met

# check: pIC50 of C=C1C(=O)[C@]23[C@H](OC(=O)c4cn(C)c5ccccc45)[C@H]1CC[C@H]2[C@@]12CO[C@]3(O)[C@@H](O)[C@@H]1C(C)(C)CC[C@@H]2O is greater than or equal to 5
Met

# check: pIC50 of C=C1C(=O)[C@]23[C@H](OC(=O)c4cn(-c5cc(OC)c(OC)c(OC)c5)nn4)[C@H]1CC[C@H]2[C@@]12CO[C@]3(O)[C@@H](O)[C@@H]1C(C)(C)CC[C@@H]2O is greater than or equal to 5
Met

# check: pIC50 of C=C1C(=O)[C@]23[C@H](OC(=O)c4cc5c(OC)c(OC)c(OC)cc5[nH]4)[C@H]1CC[C@H]2[C@@]12CO[C@]3(O)[C@@H](O)[C@@H]1C(C)(C)CC[C@@H]2O is greater than or equal to 5
Met
